- protocolSummary: solvent given as SMILES
- runParameters: in ClCCl

# compound, endpointUnit, absorption maximum
rows = [
    ("CCCCCCCCOc1cc(/C=C/c2ccncc2)c(OCCCCCCCC)cc1/C=C/c1ccncc1", "nm", 398),
    ("CC(C)(C)c1ccc2c(c1)c1cc(C(C)(C)C)ccc1n2-c1ccc(C#Cc2ccc(C=C(C#N)C#N)cc2)cc1", "nm", 410),
    ("S=P1(c2ccccc2)c2cccc3ccc4ccc1n4c23 (stereo not drawn)", "nm", 407),
]

====

- protocolSummary: solvent given as SMILES
- runParameters: in ClCCl

# molecule, endpointUnit, absorption maximum
data = [
    ("CCCc1ccc(C#Cc2cc(C#Cc3ccc(CCC)cc3)c3ccc4c(C#Cc5ccc(N(C)C)cc5)cc(C#Cc5ccc(CCC)cc5)c5ccc2c3c54)cc1", "nm", 473),
    ("Fc1ccc(C#Cc2c(C#Cc3ccc(F)cc3)c(C#Cc3ccc(F)cc3)c(C#Cc3ccc(F)cc3)c(C#Cc3ccc(F)cc3)c2C#Cc2ccc(F)cc2)cc1", "nm", 368),
    ("Cc1cc(-c2ccccc2C)cc(C)[o+]1", "nm", 343),
    ("O=P1(c2ccccc2)c2cccc3ccc4ccc1n4c23 (stereo not drawn)", "nm", 412),
    ("CC(C)[Si](C#Cc1c2cc3ccccc3cc2c(C#C[Si](C(C)C)(C(C)C)C(C)C)c2nc3cc4c(cc3nc12)C1c2ccccc2C4c2ccccc21)(C(C)C)C(C)C", "nm", 683),
    ("CCOC(=O)C1=C(C(=O)OCC)C2(c3ccccc3-c3c(Br)cc(Br)cc32)C2(/C=C/c3ccc(Cl)cc3)c3cc(OC)c(OC)cc3CCN12 (stereo not drawn)", "nm", 329),
    ("F[B-]1(F)n2cccc2C(c2ccccc2)=C2C=CC(N3CCOCC3)=[N+]21", "nm", 486),
    ("CN(C)c1ccc(C#Cc2nc(-c3ccccc3)nc3ccccc23)cc1", "nm", 414),
]

====

- protocolSummary: solvent given as SMILES
- runParameters: in ClCCl

# compound, absorption maximum / nm
data = [
    ("Cc1ccc(C(=O)NC(C)(C)C)c2c1ccc1c3ccccc3c3ccccc3c12", 335),
    ("CCCn1c(=O)c(/C=C/c2nc3ccc(C)cc3n(CCC)c2=O)nc2ccc(C)cc21", 434),
    ("C[Si]1(C)O[Si](C)(C)c2cc3nc4ccc([N+](=O)[O-])cc4c(-c4ccccc4)c3cc2[Si](C)(C)O1", 376),
    ("CCOC(=O)CCCCCn1c2ccc(N)cc2c(=O)c2cc3c(cc21)c(=O)c1cc(N)ccc1n3CCCCCC(=O)OCC", 574),
    ("COc1ccc(N(c2ccc(OC)cc2)c2ccc3ccc4c(B(c5c(C)cc(C)cc5C)c5c(C)cc(C)cc5C)ccc5ccc2c3c54)cc1", 461),
    ("O=P1(c2ccccc2)c2ccccc2-c2sc3ccccc3c21 (stereo unspecified)", 329),
    ("CC1=[N+]2C(=C(c3ccc(-c4c5ccccc5c(-c5ccccc5)c5ccccc45)cc3)c3ccc(C)n3[B-]2(F)F)C=C1", 513),
    ("CCCCCCOc1cc(N(CC)CC)ccc1/C=C(\\C#N)c1ccc(/C=C/C(=C(C#N)C#N)c2ccc(N(c3ccccc3)c3ccccc3)cc2)s1", 557),
    ("CCN(CC)c1ccc2cc(-c3ccc(-c4ccc(-c5cc6ccc(N(CC)CC)cc6oc5=O)cc4)cc3)c(=O)oc2c1", 417),
    ("Cc1ccc(C)n1-c1cccc(C#N)c1", 259),
    ("N#Cc1cc2nc3c(nc2cc1C#N)C1c2ccc(N(c4ccccc4)c4ccccc4)cc2C3c2ccc(N(c3ccccc3)c3ccccc3)cc21", 428),
]

====

- protocolSummary: solvent given as SMILES
- runParameters: in Cc1ccccc1

# smilesEntry, absorption maximum [nm]
rows = [
    ("CCCCCCCCCCCCCCCC[n+]1ccc(/C=C(\\C)c2ccccc2)cc1", 393.5),
    ("O=S(=O)(c1cccc(-n2c3ccccc3c3ccccc32)c1)c1cccc(-n2c3ccccc3c3ccccc32)c1", 338),
    ("CN(C)c1ccc2cc(C3=[O+][B-](F)(F)OC(c4ccc(C#N)cc4)=C3)ccc2c1", 519),
    ("c1ccc([B-]2(c3ccccc3)Oc3ccc4ccccc4c3-c3c4ccccc4cn[n+]32)cc1", 436),
    ("Cc1cc(N2c3ccccc3[Si](c3ccccc3)(c3ccccc3)c3ccccc32)c(C)cc1-c1nc(-c2ccccc2)nc(-c2ccccc2)n1", 365.47),
]

====

- protocolSummary: solvent given as SMILES
- runParameters: in ClCCl
Reported absorption maximum values for the following compounds.

# smilesEntry, absorption maximum, nm
records = [
    ("COc1cc(C=O)cc(-c2[nH]c(=O)n3c2-c2ccccc2C3=O)c1O", 390),
    ("COc1cc(OC)cc(C2=[O+][B-](F)(F)OC(c3ccc4cc(OC)ccc4c3)=C2)c1", 427),
    ("N#Cc1ccc(/C=C/c2ncc(-c3ccccc3)o2)cc1", 360),
    ("F[B-]1(F)n2c(Cl)c(Cl)c(Br)c2C(Cl)=C2C(Br)=C(Cl)C(Cl)=[N+]21", 546),
]

====

Reported absorption maximum values for the following compounds.
- protocolSummary: solvent given as SMILES
- runParameters: in CCO
reportedMetric: absorption maximum (nm)

# smilesEntry, endpointUnit, experimentalValue
rows = [
    ("CCOC(=O)c1cc(C(=O)OCC)c2cc(O)ccc2n1", "nm", 364),
    ("F[B-]1(F)n2cccc2C(c2c3ccccc3cc3ccccc23)=C2C=CC=[N+]21", "nm", 503),
    ("F[B-]1(F)OC(c2ccccc2)=Nc2sc(-c3ccccc3)n[n+]21", "nm", 328),
    ("O=c1c(Nc2ccccc2)c([O-])c1=[NH+]c1ccccc1", "nm", 393),
    ("CN1CCN(c2ccc3c4c(cccc24)C(=O)c2ccccc2-3)CC1", "nm", 455.4),
    ("CCN(CC)c1ccc2cc3ccc(=[N+](CC)CC)cc-3oc2c1", "nm", 526),
    ("Cn1c2ccccc2[c+](-c2ccccc2)c2cc([N+](=O)[O-])ccc21", "nm", 426.3),
    ("CN(C)c1ccc(C#Cc2ccc3ccc4ccc(C#Cc5ccc(N(C)C)cc5)c5ccc2c3c45)cc1", "nm", 426),
    ("CN(C)c1ccc(-c2nc3cnccc3[nH]2)cc1", "nm", 340),
    ("O=C1c2cccc3cc4ccccc4c(c23)C(=O)N1Cc1ccccn1", "nm", 436),
    ("CNc1cc2nc3cc(Br)c(Br)cc3nc2cc1NC", "nm", 443),
    ("COc1ccc(C#Cc2ccc(C#Cc3ccc(P(=O)(c4ccc(C#Cc5ccc(C#Cc6ccc(OC)cc6)cc5)cc4)c4ccc(C#Cc5ccc(C#Cc6ccc(OC)cc6)cc5)cc4)cc3)cc2)cc1", "nm", 336),
    ("CC1=NN(c2ccccc2)C(=O)/C1=C/c1cn(-c2ccccc2)nc1-c1ccccc1", "nm", 367),
]

====

Reported absorption maximum values for the following molecules.
- protocolSummary: solvent given as SMILES
- runParameters: in ClCCl
reportedMetric: absorption maximum (nm)

# smilesEntry, endpointUnit, experimentalValue
rows = [
    ("COc1ccc(N(c2ccc(OC)cc2)c2cc3ccc4cc(B(c5c(C)cc(C)cc5C)c5c(C)cc(C)cc5C)cc5ccc(c2)c3c45)cc1", "nm", 397),
    ("CCN(CC)c1ccc(/C=N/C(C#N)=C(C#N)/N=C/c2ccc(N(CC)CC)cc2O)c(O)c1", "nm", 570),
    ("CC(C)(C)NC(=O)c1cccc2ccc3c4cc(F)ccc4c4ccc(F)cc4c3c12", "nm", 334),
    ("COc1ccc(-c2c3cc4ccccc4cc3c(C#Cc3ccccc3)c3cc4ccccc4cc23)cc1", "nm", 635),
    ("CN(C)c1ccc(C2=Nc3sc4cc(F)ccc4[n+]3[B-](F)(F)O2)cc1", "nm", 425),
    ("CCCCCCCCn1nnc(-c2ccc(C#Cc3ccc(C#Cc4ccc(-c5nnn(CCCCCCCC)n5)cc4)c4nc5c6ccccc6c6ccccc6c5nc34)cc2)n1", "nm", 428),
    ("c1ccc(N2c3ccccc3Sc3cc(-c4cccc5nc6ccccc6cc45)ccc32)cc1", "nm", 407),
    ("CCOC(=O)c1ccc(O)c(-c2[nH]c(=O)n3c2-c2ccccc2C3=O)c1", "nm", 399),
    ("COc1ccc(/N=N/c2c(O)c3ccccc3n(C)c2=O)c(S(=O)(=O)O)c1", "nm", 451),
    ("F[B-]1(F)OC(c2ccc(C(F)(F)F)cc2)=Cc2cc(Cl)nc[n+]21", "nm", 372),
    ("CN(/N=C1\\N=C(N)C2(CCCC2)c2ccccc21)c1ccccc1", "nm", 378),
    ("Cc1cc2ccccc2c2c1c1ccccc1n2-c1ccc(N(c2ccccc2)c2ccccc2)cc1", "nm", 304),
    ("c1ccc(-c2nc(-c3ccc(N(c4ccccc4)c4ccccc4)cc3)n3ccccc23)cc1", "nm", 353),
    ("C(#Cc1c2ccccc2c(-c2ccccc2)c2cc3ccccc3cc12)c1ccccc1", "nm", 522),
]

These measurements were taken from the Deep4Chem optical property database.
